EXPERIMENT: Mouse PK, single oral gavage
EXPERIMENTAL_CONTEXT: mouse, in vivo, po, 0.3 mg/kg, Mouse T1/2, oral gavage, single dose 0.3 mg/kg
RECORDED_ENDPOINT: half-life (h)
Numbers only; they are read as h.

// known answers, use as guide
                                   compound  units_of_measure  reported_measurement
0  O=C(Nc1ccc(OC(F)(F)F)cc1)NC1CCN(C(=O)C2=COCC2)CC1                 h                   2.9
1  O=C(Nc1ccc(OC(F)(F)F)c(F)c1)NC1CCN(C(=O)[C@@H]2CCOC2)CC1                 h                   174

### Prompt Reported half-life for O=C(Nc1ccc(OC(F)(F)F)cc1)NC1CCN(C(=O)C2CCOC2)CC1 (stereo not shown) : what is it?
### Response 4.6

### Prompt Reported half-life for Cc1occc1C(=O)N1CCC(NC(=O)Nc2ccc(OC(F)(F)F)cc2)CC1 : what is it?
### Response 6.2
